Tested on: Nucleic Acid
Assay: DNA binding dissociation constant as KD
Format: nucleic-acid assay
metric.name: Log Kd

                                    compound        target  observed_result
 0  COc1cc(NS(C)(=O)=O)ccc1Nc1c2ccccc2nc2ccccc12  Nucleic Acid             5.14
 1                  c1ccc2c(c1)[nH]c1cnccc12  Nucleic Acid             5.34
 2  CCN(CC)CCCC(C)Nc1ccnc2cc(Cl)ccc12 (stereo unspecified)  Nucleic Acid             4.25
 3  CN(C)CCN1C(=O)c2cccc3cc([N+](=O)[O-])cc(c23)C1=O  Nucleic Acid             5.16
 4  CC[n+]1c(-c2ccccc2)c2cc(N)ccc2c2ccc(N)cc21  Nucleic Acid              5.7
 5  CCN(CC)CCCC(C)Nc1c2ccc(Cl)cc2nc2ccc(OC)cc12 (stereo unspecified)  Nucleic Acid             4.25
 6       Cc1c2ccncc2c(C)c2c1[nH]c1ccc(O)cc12  Nucleic Acid              0.3
 7  Cn1cc(NC(=O)c2cc(NC(=O)c3cc(NC=O)cn3C)cn2C)cc1C(=O)NCCC(=N)N  Nucleic Acid             6.06
 8  COc1cccc2c1C(=O)c1c(O)c3c(c(O)c1C2=O)C[C@@](O)(C(C)=O)C[C@@H]3O[C@H]1C[C@H](N)[C@H](O)[C@H](C)O1  Nucleic Acid             6.49
 9          Cc1c2ccncc2c(C)c2c1[nH]c1ccccc12  Nucleic Acid             5.18
10   CC[n+]1c(-c2ccccc2)c2cc(N)ccc2c2ccccc21  Nucleic Acid              4.9

====

System: Nucleic Acid
Experiment: DNA binding dissociation constant as KD
Assay type: nucleic-acid assay
metric.name: Log Kd

>>> print(df.to_string())
                               smiles_entry  metric_name  observed_result
0  CCN(CC)CCOc1ccc2c(c1)C(=O)c1cc(OCCN(CC)CC)ccc1-2       Log Kd             5.64
1                     Nc1c2ccccc2nc2ccccc12       Log Kd              5.7
2  Cc1c2cc[n+](C)cc2c(C)c2c1[nH]c1ccc(O)cc12       Log Kd             6.11
3  C[n+]1ccc(Nc2ccc(NC(=O)c3ccc(Nc4cc[n+](C)c5ccc(N)cc45)cc3)cc2)cc1       Log Kd              6.9
4  c1ccc2c(c1)ccc1[n+]2Cc2ccc3ccccc3[n+]2-1       Log Kd              4.7
5  CS(=O)(=O)Nc1ccccc1Nc1c2ccccc2nc2ccccc12       Log Kd             5.72
6  CS(=O)(=O)Nc1cccc(Nc2c3ccccc3nc3ccccc23)c1       Log Kd              5.8
7  C[n+]1c(-c2ccccc2)c2cc(N)ccc2c2ccc(N)cc21       Log Kd              5.7
8  CS(=O)(=O)Nc1ccc(Nc2c3ccccc3nc3ccccc23)cc1       Log Kd             5.63
9  Cc1cc2nc3ccccc3n(-c3cccc(N(C)C)c3)c-2c(C)c1=N       Log Kd             3.64

Cited source for all entries: ChEMBL document CHEMBL1122633
